These entries and their values trace back to PubChem BioAssay.

# measurement protocol: reduction of polyQ htt aggregates in cells – imaging, exon1htt(103Q)mCFP cells, high-content imaging, primary screen (AID 483);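 further: compound exposure lasted 3 days before fixation; percent of the per-plate median nuclei count of sample wells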
# details: exon1htt(103Q)mCFP cell line, aggregate imaging, at 2 µM; measured here: cell count, toxicity
attribute measured: nuclei count (%)
Give your result in % as a bare value.

Examples from the recorded data:
compound: C=C(C)COc1ccc(-c2nc(N)ncc2-c2ccc(OC)cc2)c(O)c1
val: 69.5
//
compound: O=C1C/C(=C/NCc2ccccc2)C(=O)N1
val: 67.6
//
compound: Cc1cc(C)n2c(SCC(=O)Nc3cc(C)on3)nnc2n1
val: 71.2
//
compound: CCOc1ccccc1C1N(c2ccc(F)cc2)C(=O)C2CCCN21 (stereo unspecified)
val: 103

Sample CCN1CCN(c2nc3c(c(=O)n(C)c(=O)n3C)n2Cc2cccc3ccccc23)CC1 — what was its nuclei count?
85.1

Sample COc1cc(C(=O)OCc2cc3ccccc3[nH]c2=O)cc(OC)c1OC — what was its nuclei count?
99.3

Sample CCn1cnc2sc(C(=O)Nc3ccc4c(c3)OCO4)c(C)c2c1=O — what was its nuclei count?
102

Sample Cc1cc2ccccc2n1CCNC(=O)C1CC1 — what was its nuclei count?
107

Sample O=C(NC1=NCCS1)c1ccc2c(c1)C(=O)N(Cc1ccco1)C2=O — what was its nuclei count?
96.6

Sample CCOc1ccccc1C1CC(c2ccc(Br)cc2)Nc2nc(N)nn21 (stereo unspecified) — what was its nuclei count?
94.5

Sample CCN(CC(=O)O)S(=O)(=O)c1cc(Cl)ccc1Cl — what was its nuclei count?
97.3
